Property: self-cleavage; scope: individual variants
B1: Twister Ribozyme (parent)
chain: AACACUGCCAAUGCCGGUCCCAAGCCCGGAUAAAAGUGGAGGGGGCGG

- Variants of: B1
- protocol text: self-cleavage, relative activity (ratio to wild type); higher = more cleavage; co-transcriptional
test readout: self-cleavage

residues="ACCACUGCCAGUGCCGGUCCCAAGCCCGGAUAAAAGUGGAGGGGGCGG [A2C A11G]" quantitative_result=0.102
residues="AACACUGCCAAUGCCGCUCCCAAGCCCGGAUAAAAGUGGAGGGGGCGA [G17C G48A]" quantitative_result=0.133
residues="AACACUGCCAAUGCUGGCCCCAAGCCCGGAUAAAAGUGGAGGGGGCGG [C15U U18C]" quantitative_result=0.396
residues="AACACUGCCAAUGCCGGUCCCAAGCCCGGCUAAAAGUGGAGGGGGCUG [A30C G47U]" quantitative_result=0.48
residues="AACACUGCCAAUGCCGGUCCCAAGGCCGGCUAAAAGUGGAGGGGGCGG [C25G A30C]" quantitative_result=0.129
residues="AACACUGCCAAUGCCGGUCCCAAGCCGGGGUAAAAGUGGAGGGGGCGG [C27G A30G]" quantitative_result=0.0912
residues="AACACUGCCACUGCCGGUCCCAAGCCCGGAUAAAAGUGGAGGCGGCGG [A11C G43C]" quantitative_result=0.159
residues="ACCACUGGCAAUGCCGGUCCCAAGCCCGGAUAAAAGUGGAGGGGGCGG [A2C C8G]" quantitative_result=0.0519
residues="AACACUGCCACUGCCGGUCCCAAGCCCGGAUAAAAGUGGAGGGGGCCG [A11C G47C]" quantitative_result=0.648
